Assay: qHTS assay to identify small molecule antagonists of the estrogen related receptor signaling pathway with the pleiotropic PPARgamma coactivator (PGC) from Tox21 10K library - cell viability counter screen (AID 1224840); also: % is scaled to controls: 0 for no effect and ±100 for the full control effect; nearly all actives have a fitted effect of over 40% in size
Conditions: PGC/ERR reporter cells viability, CellTiter-Fluor, 17.5 h; series mostly up to 92.4 µM
Records with an inconclusive call do not appear. Calls of active or inactive are those of the source. Calls follow the shape of the dose curve; as a rule, active = well fitted cell-killing curve with a large enough effect in the repeat runs (not every such curve was filed as active); inconclusive = weak or mixed curves, or effect the other way; inactive = no such curve, though single readings can be large or run the other way.

>  <Compound>
COc1cc(S(N)(=O)=O)cc(C(=O)O)c1OC

>  <viability change, negative = cytotoxic>
inactive

$$$$
>  <Compound>
CCCCCCCCCCCC(C)=O

>  <viability change, negative = cytotoxic>
inactive

$$$$
>  <Compound>
CC(CN1CC(=O)NC(=O)C1)N1CC(=O)NC(=O)C1 (stereo not drawn)

>  <viability change, negative = cytotoxic>
inactive

$$$$
>  <Compound>
COC(C)(C)CC(C)=O

>  <viability change, negative = cytotoxic>
inactive

$$$$
>  <Compound>
Cc1ccc(Br)cc1

>  <viability change, negative = cytotoxic>
inactive

$$$$
>  <Compound>
N=C(N)N1CCc2ccccc2C1

>  <viability change, negative = cytotoxic>
-0.866% [at 8.39 µM] (inactive)

$$$$
>  <Compound>
Cc1nnc(C(=O)NC(C)(C)c2nc(C(=O)NCc3ccc(F)cc3)c(O)c(=O)n2C)o1

>  <viability change, negative = cytotoxic>
inactive

$$$$
>  <Compound>
CC1(C)CC(N)CC(C)(C)N1

>  <viability change, negative = cytotoxic>
inactive

$$$$
>  <Compound>
Cc1cc(=O)oc2cc(O[C@@H]3SC[C@@H](O)[C@H](O)[C@H]3O)ccc12

>  <viability change, negative = cytotoxic>
inactive

$$$$
>  <Compound>
CC(C)c1cc(C(C)C)cc(C(C)C)c1

>  <viability change, negative = cytotoxic>
inactive

$$$$
>  <Compound>
NS(=O)(=O)c1cc2c(cc1C(F)(F)F)NCNS2(=O)=O

>  <viability change, negative = cytotoxic>
inactive

$$$$
>  <Compound>
CC(C)OC(=O)C(C(=O)OC(C)C)=C1SC=CS1

>  <viability change, negative = cytotoxic>
inactive

$$$$
>  <Compound>
CN(C)CCc1c[nH]c2ccc(CS(=O)(=O)N3CCCC3)cc12

>  <viability change, negative = cytotoxic>
inactive

$$$$

* * *

Experiment: qHTS assay to identify small molecule antagonists of the sonic hedgehog signaling (Shh) pathway (AID 1259369); also: % is scaled to controls: 0 for no effect and ±100 for the full control effect; nearly all actives have a fitted effect of over 45% in size
Conditions: NIH/3T3 Gli1-Luc reporter, Shh antagonist, luminescence 24 h; series mostly up to 92.4 µM
Source text: U.S. Tox21 Program National Center for Advancing Translational Sciences [NCATS] NIH Chemical Genomics Center [NCGC] U.S. Environmental Protection Agency [EPA] National Institutes of Environmental Health Sciences [NIEHS] National Toxicology Program [NTP] U.S. Food and Drug Administration [FDA] Tox21 Assay Overview: The sonic hedgehog (Shh) pathway is essential for normal embryonic development. Dysregulation of the Shh pathway can cause severe developmental defects in organs. […]
Records with an inconclusive call do not appear. Active and inactive are the calls of the source. Calls come from the whole dose curve.

>  <Molecule>
NNC(=O)CCCCC(=O)NN

>  <activity change, negative = inhibition>
inactive

$$$$
>  <Molecule>
COCCCOc1cc(C[C@@H](C[C@H](N)[C@@H](O)C[C@H](C(=O)NCC(C)(C)C(N)=O)C(C)C)C(C)C)ccc1OC

>  <activity change, negative = inhibition>
inactive

$$$$
>  <Molecule>
CCCC(C)C(O)CC (stereo unspecified)

>  <activity change, negative = inhibition>
inactive

$$$$
>  <Molecule>
CCCCCCCCC1CO1 (stereo unspecified)

>  <activity change, negative = inhibition>
inactive

$$$$
>  <Molecule>
CC(C)(C)OC=O

>  <activity change, negative = inhibition>
inactive

$$$$
>  <Molecule>
Cc1ccc(O)c(C(=O)c2ccccc2)c1

>  <activity change, negative = inhibition>
inactive

$$$$

* * *

Molecular target: Nuclear receptor subfamily 1 group I member 2 (Homo sapiens)
Experiment: Human pregnane X receptor (PXR) small molecule agonists, qHTS assay (AID 1346982); also: nearly all actives have a fitted effect of over 35% in size; as to activation: % is scaled to controls: 0 for no effect and ±100 for the full control effect
Details: PXR-Luc HepG2, CYP3A4 luciferase reporter, 24 h; series mostly up to 92.4 µM
Inconclusive results are not listed. Activity calls are given as the source filed them. Calls come from the whole dose curve; as a rule, active = well fitted activation curve with a large enough effect in the repeat runs; inconclusive = weak or mixed curves; inactive = no such curve, though single readings can be large or run the other way. Non-standard residues stand in square brackets, D forms with d. Residues, ends and D or L forms follow the SMILES beside them. *: point of attachment. Sta = CC(C)C[C@H](N)[C@@H](O)CC(=O)O; Isovaleryl = CC(C)CC(=O)*
Classes used: y for active, n for inactive

>  <Compound>
CCCCCCCCCCCBr

>  <Category>
n

$$$$
>  <Compound>
COC(=O)/C=C(\C)CCC=C(C)C

>  <Category>
y

$$$$
>  <Compound>
NNC(=O)CCCCC(=O)NN

>  <Category>
n

$$$$
>  <Compound>
Cc1nnc(C(=O)NC(C)(C)c2nc(C(=O)NCc3ccc(F)cc3)c(O)c(=O)n2C)o1

>  <Category>
n

$$$$
>  <Compound>
CCCCCCC(O)CO (stereo not given)

>  <Category>
n

$$$$
>  <Compound>
CCCC(=O)C(CC)Sc1ccoc1C (stereo not given)

>  <Category>
n

$$$$
>  <Compound>
CCCCN(CCCC)CCCCCCN(CCCC)CCCC

>  <Category>
n

$$$$
>  <Compound>
O=C(O)P(=O)(O)O

>  <Category>
n

$$$$
>  <Compound>
CCCCN=C(N)N=C(N)N

>  <Category>
n

$$$$
>  <Compound>
CCOC(=O)COc1ccc2c(C)c(CCN(CC)CC)c(=O)oc2c1Cl

>  <Category>
n

$$$$
>  <Compound>
CC(C)CC(=O)N[C@H](C(=O)N[C@H](C(=O)N[C@@H](CC(C)C)[C@@H](O)CC(=O)N[C@@H](C)C(=O)N[C@@H](CC(C)C)[C@@H](O)CC(=O)O)C(C)C)C(C)C (Isovaleryl-VV[Sta]A[Sta]-OH)

>  <Category>
n

$$$$
>  <Compound>
BrCCOc1ccccc1

>  <Category>
n

$$$$
>  <Compound>
CC(C)C(=O)Nc1cccc(C2CN3CCSC3=N2)c1 (stereo not given)

>  <Category>
n

$$$$
>  <Compound>
O=S(=O)(O)c1ccc(Cl)cc1

>  <Category>
n

$$$$
>  <Compound>
C[C@@H](CN1CC(=O)NC(=O)C1)N1CC(=O)NC(=O)C1

>  <Category>
n

$$$$
>  <Compound>
CCc1ccc(CC)cc1

>  <Category>
n

$$$$
>  <Compound>
COc1cc(S(N)(=O)=O)cc(C(=O)O)c1OC

>  <Category>
n

$$$$
>  <Compound>
CC12CCCC=C1C(=O)OC2=O (stereo not given)

>  <Category>
n

$$$$
>  <Compound>
COc1cnc(NS(=O)(=O)c2ccc(N)cc2)nc1

>  <Category>
n

$$$$
>  <Compound>
CCCC(=O)OC

>  <Category>
n

$$$$
>  <Compound>
O=C1Nc2ccccc2C1=O

>  <Category>
n

$$$$
>  <Compound>
CCC(C)c1nccnc1OC (stereo not given)

>  <Category>
n

$$$$
>  <Compound>
CC(=O)OC/C=C(/C)CCC=C(C)C

>  <Category>
n

$$$$
>  <Compound>
CCCC[O][Al]([O]CCCC)[O]CCCC

>  <Category>
n

$$$$
>  <Compound>
CN(C)c1ccncc1

>  <Category>
n

$$$$

* * *

Assay: Caspase-3/7 induction in CHO-K1 cells by small molecules, qHTS cell viability counter screen (AID 1346979); also: % is scaled to controls: 0 for no effect and ±100 for the full control effect; nearly all actives have a fitted effect of over 35% in size
Conditions: CellTiter-Fluor fluorescence, 17 h; series mostly up to 92.4 µM
Results filed as inconclusive are left out. Active and inactive are the calls of the source. The call rests on the fitted dose curve; in most records, active means well fitted cell-killing curve with a large enough effect in the repeat runs; inconclusive means weak or mixed curves, or effect the other way; inactive means no such curve, though single readings can be large or run the other way. Non-standard residues stand in square brackets, D forms with d. Residues, ends and D or L forms follow the SMILES beside them. *: point of attachment. Sta = CC(C)C[C@H](N)[C@@H](O)CC(=O)O; Isovaleryl = CC(C)CC(=O)*

>  <Compound>
CC(CC(=O)Cl)CC(C)(C)C (stereo not drawn)

>  <activity change, negative = cytotoxicity>
inactive

$$$$
>  <Compound>
COC(=O)c1ccc(NC(C)=O)cc1OC

>  <activity change, negative = cytotoxicity>
inactive

$$$$
>  <Compound>
Cc1cc(C)c(N)c(Cl)c1

>  <activity change, negative = cytotoxicity>
inactive

$$$$
>  <Compound>
CN(C)CCc1c[nH]c2ccc(C[C@H]3COC(=O)N3)cc12

>  <activity change, negative = cytotoxicity>
inactive

$$$$
>  <Compound>
Cc1ccc(OC(=O)CC(C)C)cc1

>  <activity change, negative = cytotoxicity>
inactive

$$$$
>  <Compound>
N#Cc1ccccc1C#N

>  <activity change, negative = cytotoxicity>
inactive

$$$$
>  <Compound>
NNC(=O)CCCCC(=O)NN

>  <activity change, negative = cytotoxicity>
inactive

$$$$
>  <Compound>
CCN(CC)CC

>  <activity change, negative = cytotoxicity>
inactive

$$$$
>  <Compound>
O=c1c(O)c(O)c1=O

>  <activity change, negative = cytotoxicity>
inactive

$$$$
>  <Compound>
c1cc2ccc3ccc4ccc5cccc6c(c1)c2c3c4c56

>  <activity change, negative = cytotoxicity>
14.9% [at 3.27 µM] (inactive)

$$$$
>  <Compound>
N#CC1(N)CCCCC1

>  <activity change, negative = cytotoxicity>
inactive

$$$$
>  <Compound>
COCCCOc1cc(C[C@@H](C[C@H](N)[C@@H](O)C[C@H](C(=O)NCC(C)(C)C(N)=O)C(C)C)C(C)C)ccc1OC

>  <activity change, negative = cytotoxicity>
inactive

$$$$
>  <Compound>
CCCCS

>  <activity change, negative = cytotoxicity>
inactive

$$$$
>  <Compound>
C=CCN(CC=C)CC=C

>  <activity change, negative = cytotoxicity>
inactive

$$$$
>  <Compound>
Cc1ccc(O)c([N+](=O)[O-])c1

>  <activity change, negative = cytotoxicity>
inactive

$$$$
>  <Compound>
CC(C)CC(=O)N[C@H](C(=O)N[C@H](C(=O)N[C@@H](CC(C)C)[C@@H](O)CC(=O)N[C@@H](C)C(=O)N[C@@H](CC(C)C)[C@@H](O)CC(=O)O)C(C)C)C(C)C (Isovaleryl-VV[Sta]A[Sta]-OH)

>  <activity change, negative = cytotoxicity>
inactive

$$$$
>  <Compound>
CCc1ncc(C)[nH]1

>  <activity change, negative = cytotoxicity>
inactive

$$$$
>  <Compound>
C[C@@H]1CC[C@@]2(OC1)O[C@H]1C[C@H]3[C@@H]4CC[C@H]5C[C@@H](O)CC[C@]5(C)[C@H]4CC(=O)[C@]3(C)[C@H]1[C@@H]2C

>  <activity change, negative = cytotoxicity>
2.81% [at 8.39 µM] (inactive)

$$$$
